# target.entity: B1R receptor of the rat (bradykinin 1 receptor) (Rattus norvegicus, UniProt P97583)
# Construct: host or cells: CHO K1 cells (rB1R cells)
# Sequence (P97583 whole entry): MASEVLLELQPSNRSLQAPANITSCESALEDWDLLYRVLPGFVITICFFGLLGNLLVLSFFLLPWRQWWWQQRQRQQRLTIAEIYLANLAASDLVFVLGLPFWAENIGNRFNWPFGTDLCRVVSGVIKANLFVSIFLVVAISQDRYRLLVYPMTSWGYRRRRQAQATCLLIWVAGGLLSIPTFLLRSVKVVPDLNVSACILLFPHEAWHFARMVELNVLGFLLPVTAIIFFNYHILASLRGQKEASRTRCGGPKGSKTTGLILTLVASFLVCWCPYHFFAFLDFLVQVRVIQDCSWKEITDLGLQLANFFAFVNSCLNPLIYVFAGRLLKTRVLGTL
# assay.protocol: FLIPR Ca2+ assay (Fluo-4) on CHO K1 cells stably transfected with the B1R gene of the rat; % activation and % inhibition at 10 μM
# Format: cell-based
# measurement.setup: CHO-K1, test substance 10 μM; CHO K1 rB1R cells; Ca2+ inflow after 100 nM Des-Arg9-bradykinin; read-out: B1R antagonism, rat [10 μM] % inhibition
reported.metric: inhibition at 10 µM

> print(dat)
                                   compound      reported.metric  result
1  O=C(COCc1sccc1N(Cc1ccccc1)S(=O)(=O)c1ccc(Cl)c(Cl)c1)N1CCC(O)(Cc2ccccc2)CC1  inhibition at 10 µM   28.4%
2  COc1cc(C)c(S(=O)(=O)N(CCOCC(=O)N2CCC(O)(c3cccs3)CC2)CC(C)C)c(C)c1C  inhibition at 10 µM   99.1%
3  O=C(COC1CCCN(S(=O)(=O)c2c(Cl)cc(Cl)cc2Cl)C1)N1CCC(O)(c2ccc(Cl)c(C(F)(F)F)c2)CC1 (stereo not drawn)  inhibition at 10 µM   76.3%
4  COc1cc(C)c(S(=O)(=O)N2CCCCC2COCC(=O)N2CCC(O)(c3ccc(Br)cc3)CC2)c(C)c1 (stereo not drawn)  inhibition at 10 µM   96.8%
5  O=C(COCC1CCCN1S(=O)(=O)c1cc(Cl)sc1Cl)N1CCC(O)(Cc2ccccc2)CC1 (stereo not drawn)  inhibition at 10 µM   72.4%
6  CN(c1ccccc1CCC(=O)N1CCC(O)(c2ccc(Cl)c(C(F)(F)F)c2)CC1)S(=O)(=O)c1ccc(Cl)c(Cl)c1  inhibition at 10 µM   61.6%
7  O=C(COCC1CCCCN1S(=O)(=O)c1ccccc1C(F)(F)F)N1CCC(O)(c2ccccc2)CC1 (stereo not drawn)  inhibition at 10 µM    104%
8  COc1cc(C)c(S(=O)(=O)N(C)CCOCCC(=O)N2CCC(O)(c3ccc(Cl)cc3)CC2)c(C)c1  inhibition at 10 µM   92.4%

# input for lookup
The compound COc1cc(C)c(S(=O)(=O)N2CCC(COCC(=O)N3CCC(O)(c4cccnc4)CC3)C2)c(C)c1 (stereo not drawn) , when measured on B1R receptor of the rat (bradykinin 1 receptor) (Rattus norvegicus, UniProt P97583), yielded inhibition at 10 µM of 82.8%
